A collection of compounds and their measured pKi
# system.under.test: HPK full length, T165E S171E (Homo sapiens (Human), UniProt Q92918, S171E/T165E)
# Sequence (Q92918 whole entry T165E/S171E, looked up): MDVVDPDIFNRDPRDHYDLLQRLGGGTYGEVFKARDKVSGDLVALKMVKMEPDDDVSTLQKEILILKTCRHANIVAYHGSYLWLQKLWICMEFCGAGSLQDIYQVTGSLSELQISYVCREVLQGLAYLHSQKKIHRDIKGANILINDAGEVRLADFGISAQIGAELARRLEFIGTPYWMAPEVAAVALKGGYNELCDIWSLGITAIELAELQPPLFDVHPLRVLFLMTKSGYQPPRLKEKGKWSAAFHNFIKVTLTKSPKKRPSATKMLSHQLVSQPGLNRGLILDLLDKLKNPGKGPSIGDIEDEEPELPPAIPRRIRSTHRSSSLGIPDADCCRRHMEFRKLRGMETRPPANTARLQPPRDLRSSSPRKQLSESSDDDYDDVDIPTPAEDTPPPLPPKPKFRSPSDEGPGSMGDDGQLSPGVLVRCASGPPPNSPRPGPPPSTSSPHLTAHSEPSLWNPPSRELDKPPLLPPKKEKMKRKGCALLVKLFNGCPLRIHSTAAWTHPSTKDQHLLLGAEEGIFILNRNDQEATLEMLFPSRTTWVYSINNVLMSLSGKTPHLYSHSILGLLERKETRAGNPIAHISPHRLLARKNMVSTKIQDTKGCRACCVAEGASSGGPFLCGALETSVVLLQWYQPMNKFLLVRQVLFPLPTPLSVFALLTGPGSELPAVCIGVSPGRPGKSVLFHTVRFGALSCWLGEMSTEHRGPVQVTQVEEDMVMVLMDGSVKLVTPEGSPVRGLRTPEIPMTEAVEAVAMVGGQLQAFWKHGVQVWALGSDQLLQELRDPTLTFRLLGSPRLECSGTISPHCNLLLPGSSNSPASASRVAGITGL
# measurement.protocol: HPK1-FL HTRF enzymatic assay ("HTRF")
# Assay type: biochemical
# measurement.context: ATP 1 mM, read-out: HPK1 Ki
In simple prose, pKi is minus the logarithm base ten of a concentration in moles per litre.

Examples with their reported pKi follow.
Cc1c(-c2cc3cc(NC(=O)N4CCC4)ncc3c(N)c2F)cnc2c1NCCO2 :: 10.70
CO[C@H]1COCC[C@@H]1OC(=O)Nc1cc2cc(-c3cnc4c(c3C)NCCO4)c(F)c(N)c2cn1 (single isomer, unassigned) [Compound 583a] :: 9.92
Cc1c(-c2cc3cc(NC(=O)O[C@H]4CCO[C@@H]4C)ncc3c(N)c2F)cnc2c1NCCO2 (single isomer, unassigned) [Compound 510b] :: 9.51
Cc1c(-c2cc3cc(NC(=O)O[C@H]4CO[C@]5(CCN(C)C5)C4)ncc3c(N)c2F)cnc2c1NCCO2 (relative stereo) [Compound 467b] :: 10.19
Cc1c(-c2cc3cc(NC(=O)O[C@@H]4CC[C@@H]4C)ncc3c(N)c2F)cnc2c1NCCO2 (single isomer, unassigned) [Compound 559a] :: 10.60

Value wanted: pKi (HPK full length, T165E S171E (Homo sapiens (Human), UniProt Q92918, S171E/T165E)) of entry Cc1c(-c2cc3cc(NC(=O)O[C@H]4COC[C@@H]4F)ncc3c(N)c2F)cnc2c1NCCO2 (single isomer, unassigned) [Compound 477b]
10.77

Lab note: need pKi for Cc1c(-c2cc3cc(NC(=O)O[C@@H]4CO[C@H]5OCC[C@H]54)ncc3c(N)c2F)cnc2c1NCCO2 (single isomer, unassigned) [Compound 568b] on HPK full length, T165E S171E (Homo sapiens (Human), UniProt Q92918, S171E/T165E), anyone have it?
10.74

Given the entry Cc1c(-c2cc3cc(NC(=O)O[C@H]4CCC(=O)N(C)C4)ncc3c(N)c2F)cnc2c1NCCO2 [Compound 409a] , what pKi was observed with HPK full length, T165E S171E (Homo sapiens (Human), UniProt Q92918, S171E/T165E)?
10.28

---

# system.under.test: HPK full length, T165E S171E (Homo sapiens (Human), UniProt Q92918, S171E/T165E)
# measurement.protocol: HPK1-FL HTRF enzymatic assay ("HTRF")
# Type: biochemical
# measurement.context: ATP 1 mM, read-out: HPK1 Ki
Structures can show the parent of a compound that is named as a salt.
Form field: Ki (one value per entry).
A number alone suffices; assume nM.

Recorded Ki, per entry:
CCC(=O)N1CC(OC(=O)Nc2cc3cc(-c4cnc5c(c4C)NCCC5)c(F)c(N)c3cn2)C1 [Compound 492] :: 0.055
Cc1c(-c2cc3cc(NC(=O)N[C@H]4CC[C@@H](C#N)C4)ncc3c(N)c2F)cnc2c1NCCO2 (single isomer, unassigned) [Compound 726b] :: 0.016
Cc1c(-c2cc3cc(NC(=O)O[C@@H]4CCOC4)ncc3c(N)c2F)cnc2c1NC[C@H](F)O2 (single isomer, unassigned) [Compound 518b] :: 0.044
CC(=O)N[C@H]1CCCC[C@@H]1OC(=O)Nc1cc2cc(-c3cnc4c(c3C)NCCO4)c(F)c(N)c2cn1 (single isomer, unassigned) [Compound 414a] :: 0.59
Cc1c(-c2cc3cc(NC(=O)OC4CC(O)C4)ncc3c(N)c2F)cnc2c1NC[C@H](C)C2 (stereo partly shown) [Compound 560b] :: 0.32
Cc1c(-c2cc3cc(NC(=O)N[C@H]4COC[C@H]4F)ncc3c(N)c2F)cnc2c1NCCO2 (single isomer, unassigned) [Compound 724a] :: 0.019

Which measured Ki value corresponds to CC(=O)O[C@]1(C)C[C@H](OC(=O)Nc2cc3cc(-c4cnc5c(c4C)NCCO5)c(F)c(N)c3cn2)C1 [Compound 529b] ?
0.019

Give the measured Ki of Cc1c(-c2cc3cc(NC(=O)O[C@@H]4COC[C@H]4C)ncc3c(N)c2F)cnc2c1NC(=O)CO2 (single isomer, unassigned) [Compound 558b, hydrochloride] .
3.75

FYI, the data here is from patent US11612606B2.
